Data provenance is PubChem BioAssay (NCATS).

tested on: Zika virus NS2B-NS3 protease (linked construct); assay: Confirmatory screen NINDS AMC qHTS for Zika virus inhibitors (AID 1347152); conditions: Purified linked NS2B-NS3, AMC substrate fluorescence; series mostly up to 56.6 µM; note: nearly all actives have a fitted effect of over 70% in size; note: potency is the fitted concentration of half-maximal effect
Inconclusive results are not listed. The source made the active and inactive calls. Calls come from the whole dose curve; as a rule, active = well fitted inhibition curve with a large enough effect; inconclusive = small, poorly fitted or top-dose-only effect; inactive = flat fitted curve, though single readings scatter.
Attribute Measured: Potency

Below: 5 compounds and their reported Potency.
| Compound | Potency |
| --- | --- |
| N#CC1(c2cccc(C(=O)Nc3cc(Oc4ccc5nc(NC(=O)C6CC6)sc5n4)ccc3F)c2Cl)CC1 | inactive |
| N#CC(c1ccc(Cl)cc1)c1c(Cl)cc(-n2ncc(=O)[nH]c2=O)cc1Cl (stereo not drawn) | 21.5 µM (active) |
| Fc1ccc(C(c2ccc(F)cc2)N2CCN(CC=Cc3ccccc3)CC2)cc1 | inactive |
| O=C(Nc1cccc2c(=O)cc(-c3nn[nH]n3)oc12)c1ccc(OCCCCc2ccccc2)cc1 | 5.41 µM (active) |
| CCOC(=O)[C@H](CCc1ccccc1)N[C@@H](C)C(=O)N1CCCC1C(=O)O (stereo partly drawn) | inactive |

Give Potency; test system Zika virus NS2B-NS3 protease (linked construct); compound `c1cc(OCCN2CCCCC2)cc(-c2n[nH]c3ccc(-c4ncn[nH]4)cc23)c1`
24.1 µM (active)

Give Potency; test system Zika virus NS2B-NS3 protease (linked construct); compound `Cc1nc(C(=O)NCC(=O)O)c(O)c2ccc(Oc3ccccc3)cc12`
21.5 µM (active)

Give Potency; test system Zika virus NS2B-NS3 protease (linked construct); compound `O=C(Nc1ccccc1)Nc1ccc(-c2ccc(C(=O)[C@H]3CCC[C@H]3C(=O)O)cc2)cc1`
24.1 µM (active)

----------
test: qHTS of pediatric cancer cell lines to identify multiple opportunities for drug repurposing: Primary screen for OHS-50 cells (AID 1347103); settings: OHS-50 osteosarcoma viability, CellTiter-Glo luminescence, 48 h; series mostly up to 57.3 µM; note: nearly all actives have a fitted effect of over 40% in size
Results filed as inconclusive are left out. Active and inactive are the calls of the source. Calls follow the shape of the dose curve; as a rule, active = well fitted cell-killing curve with a large enough effect; inconclusive = small, poorly fitted or top-dose-only effect; inactive = no such curve, though single readings can be large or run the other way.
Can you answer with just one of these options? Y (active), N (inactive)

Past entries and their recorded results:
| Compound | Label |
| --- | --- |
| Cc1cnc(Nc2cccc(CN3CCOCC3)c2)nc1Nc1cccc(S(=O)(=O)NC(C)(C)C)c1 | Y |
| CN(C(Cc1ccc(OS(=O)(=O)c2cccc3cnccc23)cc1)C(=O)N1CCN(c2ccccc2)CC1)S(=O)(=O)c1cccc2cnccc12 (centres undefined) | Y |
| C[C@H]1O[C@@H](n2cc(F)c(=O)[nH]c2=O)[C@H](O)[C@H]1O | N |
| Cc1cccc(Nc2nc(N[C@@H]3CCCC[C@H]3N)ncc2C(N)=O)c1 | Y |
| Nc1ccc(-c2ccc3ncc4ccc(=O)n(-c5cccc(C(F)(F)F)c5)c4c3c2)cn1 | Y |

// switching to the query compound
Give the logged outcome of this assay for the following compound: N#CC(c1ccnc(NCCc2cccnc2)n1)c1nc2ccccc2s1 (centres undefined)
Y

----------
Assay: qHTS of pediatric cancer cell lines to identify multiple opportunities for drug repurposing: Primary screen for RD cells (AID 1347104); note: nearly all actives have a fitted effect of over 55% in size
Conditions: RD rhabdomyosarcoma viability, CellTiter-Glo luminescence, 48 h; series mostly up to 46 µM
Protocol: Drug repurposing or repositioning has been offered as a strategy for drug development in oncology programs. This approach has special potential for childhood cancers and other rare or orphan diseases, where the expected return on new drug development has been a disincentive to pharmaceuticals. […] We employed a titration-based paradigm (quantitative high-throughput screening or qHTS), where all compounds were tested at multiple concentrations for their effect on cell viability. […]
Inconclusive results are not listed. Calls of active or inactive are those of the source. Calls follow the shape of the dose curve; as a rule, active = well fitted cell-killing curve with a large enough effect; inconclusive = small, poorly fitted or top-dose-only effect; inactive = flat fitted curve, though single readings scatter.
Can you answer with just one of these options? label 1 = active, label 0 = inactive

Past entries and their recorded results:
| Compound | Label |
| --- | --- |
| CN(C)CCOc1cc(-c2cn[nH]c2)ccc1NC(=O)C1COc2ccccc2O1 (centres undefined) | label 0 |
| CN(C)CCN(C)C(=O)c1ccc(NC(=O)Nc2ccc(-c3nc(N4CCOCC4)c4ccn(CC(F)(F)F)c4n3)cc2)cc1 | label 1 |
| Cc1nc2c([nH]1)CCN(C(=O)c1ccc(NC(=O)c3ccccc3-c3ccccc3)cc1)c1ccccc1-2 | label 0 |
| CCN(CCO)CCCOc1ccc2c(Nc3cc(CC(=O)Nc4cccc(F)c4)[nH]n3)ncnc2c1 | label 0 |
| O=C(O)C1=CO[C@@H](O[C@@H]2O[C@H](CO)[C@H](O)[C@H](O)[C@H]2O)[C@@H]2C(CO)=CC[C@H]12 | label 0 |

Give the logged outcome of this assay for the following compound: `COc1cc2nc(-c3cc(F)ccc3O)nc(N[C@@H]3CNC[C@@H]3C(C)(C)O)c2cc1OC`
label 1

Give the logged outcome of this assay for the following compound: `NCc1c[nH]c(=S)n1[C@H]1CCc2c(F)cc(F)cc2C1`
label 1

Give the logged outcome of this assay for the following compound: `C[C@@H]1[C@H](O)[C@@H](C)C=CC=CC=CC=CC=CC=CC=C[C@H](O[C@@H]2O[C@H](C)[C@H](O)[C@H](N)[C@@H]2O)C[C@@H]2O[C@](O)(C[C@@H](O)C[C@@H](O)[C@H](O)CC[C@@H](O)C[C@@H](O)CC(=O)O[C@H]1C)C[C@H](O)[C@@H]2C(=O)O`
label 1

Give the logged outcome of this assay for the following compound: `O=C(CC12CC3CC(CC(C3)C1)C2)Nc1cccc2nc(NCCNCCO)ccc12`
label 1
